target: Streptavidin (Streptomyces avidinii); assay: streptavidin binders on small-molecule microarray, primary screen, artefact control for SMM compound annotation, biophysical, 635/667 nm fluorescence (AID 1147); details: streptavidin binding, higher = more signal;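 also: signal reflects streptavidin binding to arrayed compounds as a control protein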
RECORDED_ENDPOINT: composite z-score
Give only the figure.

CC(C)=CCCC(C)=CCON=C1[C@H]2CCn3c(=O)n(-c4ccccc4)c(=O)n3[C@H]2[C@H](O)[C@@H]2O[C@H]12 yielded composite z-score of 1.07

CCCNC(=O)OC[C@H]1O[C@H](CCON=C2C[C@@H](O)[C@@H](O)[C@@H]3[C@@H]4C(=O)N(CC)C(=O)[C@@H]4CC[C@@H]23)C=C[C@@H]1Oc1ccc(OC)cc1 yielded composite z-score of 0.842

O=C1[C@H]2CCn3c(=O)n(-c4ccccc4)c(=O)n3[C@H]2[C@H](O)[C@@H]2O[C@H]12 yielded composite z-score of 0.556

CC(C)CON=C1C[C@@H](O)[C@@H](O)[C@@H]2[C@@H]3C(=O)N(C(C)(C)C)C(=O)[C@@H]3CC[C@@H]12 yielded composite z-score of 0.0099

C=CC[C@@H]1C=C[C@H](ON=C[C@@H](NS(=O)(=O)c2ccc(C)cc2)[C@H](C)C=CCC(=O)OC)[C@@H](CO)O1 yielded composite z-score of -0.407

O=C1C[C@@H](O)[C@@H](O)[C@@H]2[C@@H]3C(=O)N(c4ccc(F)cc4F)C(=O)[C@@H]3CC[C@H]12 yielded composite z-score of 0.234

CCN1C(=O)[C@H]2[C@H]3[C@H](O)[C@H](O)CC(=NO[C@@H]4O[C@H](CO)[C@@H](O)[C@H](O)[C@H]4O)[C@H]3CC[C@H]2C1=O yielded composite z-score of 0.473
